# reported %Inh; entries follow
System: CDC2L1;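 also: KINOMEscan kinase panel screen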
Construct: gene CDK11B
Settings: concentration: 1 μM, replicates: in singlicate; n = 1
metric-name: %Inh (%)

compound="c1ccc(-c2n[nH]cc2-c2ccnc3ccccc23)nc1 [GW271431]" unit=% quantitative_result=0
compound=Cc1ccc(C(=O)NCC(N)=O)cc1-n1c(C)cc(OCc2ccc(F)cc2F)c(Br)c1=O unit=% quantitative_result=7
compound=N#Cc1c(N2CCOCC2)sc(-c2ccn[nH]2)c1-c1ccc(Cl)cc1 unit=% quantitative_result=0
compound="CC(=O)Nc1ccc(COc2ccc(Nc3ccnc4cc(-c5ccccn5)ccc34)cc2)cc1.Cl [GW440148]" unit=% quantitative_result=12
compound="COc1ccc(CNC(=O)NC2CCN(c3ccnc(Nc4ccc(OC)cc4)n3)C2)cc1 (centres unmarked) [GSK1379727]" unit=% quantitative_result=0
compound="Fc1ccc(-c2ncn(CCCN3CCOCC3)c2-c2ccccn2)cc1 [SB-211742]" unit=% quantitative_result=1
compound="COc1ccc(COc2cc(-n3cnc4ccccc43)sc2C(N)=O)cc1 [GSK1024304]" unit=% quantitative_result=0
compound=COc1cc2c(cc1OCCN1CCN(C)CC1)ncc1c3ccc(C#N)cc3[nH]c21 unit=% quantitative_result=7
compound="Cc1nnc(-c2ccc3ncc(-c4ccc(S(C)=O)cc4)n3c2)o1 (centres unmarked)" unit=% quantitative_result=0
compound="O=C(Nc1cccc(-c2nn3ncccc3c2-c2ccnc(Nc3cccc(C(F)(F)F)c3)n2)c1)c1c(F)cccc1F [GSK299495]" unit=% quantitative_result=0
compound="Cc1cn2c(=O)cc(N3CCOCC3)nc2n1Cc1cccc(Cl)c1Cl [GSK2334006]" unit=% quantitative_result=0
compound=COc1cc2c(cc1OC[C@@H](O)CO)ncc1c3ccc(C#N)cc3[nH]c21 unit=% quantitative_result=0
compound=Cc1cccc(-c2nc(-c3ccc(S(C)(=O)=O)cc3)sc2-c2ccncc2)c1 unit=% quantitative_result=0
compound="COc1ccc(Nc2ncc(C#N)c(Nc3ccccc3C(N)=O)n2)cc1N1CCN(C)CC1.Cl [GSK1558669]" unit=% quantitative_result=0
compound="CN(C1=C(c2ccccc2)C(=O)NC1=O)c1ccccc1 [SB-334860]" unit=% quantitative_result=0
compound=O=C1Cc2cc(Nc3nc(NCc4cccc(S(=O)(=O)C(F)(F)F)c4)ncc3C(F)(F)F)ccc2N1 unit=% quantitative_result=9
compound=CSc1ccc(-c2cc3ncnc(SCC(=O)O)c3s2)cc1 unit=% quantitative_result=7
compound="O=C(NCCCN1CCOCC1)c1cccc(Nc2nccc(Nc3ccc(Oc4ccccc4)cc3)n2)c1 [GW663929]" unit=% quantitative_result=10
compound=CN1c2ccc(NCc3ccc(F)cc3)cc2-c2c(cnn2C)S1(=O)=O unit=% quantitative_result=0
compound="Cc1cccc(-c2nc(Nc3ccc4ncsc4c3)c3ccccc3n2)n1 [GW867588]" unit=% quantitative_result=0
compound="NS(=O)(=O)c1cccc(-c2ccc3nccc(-c4cccc(S(N)(=O)=O)c4)c3c2)c1 [GW867253]" unit=% quantitative_result=0
compound="O=C(NCCNc1ccnc(Nc2ccc(F)cc2)n1)c1cc2ccccc2s1 [GSK1379874]" unit=% quantitative_result=0
compound=CCc1ccnc(/C=C/c2n[nH]c3cc(Sc4ccccc4C(=O)NC)ccc23)c1 unit=% quantitative_result=7
compound="O=C(c1ccc(-c2cc(-c3c[nH]nc3-c3ccccn3)ccn2)cc1)N1CCOCC1 [GW812171]" unit=% quantitative_result=0
compound="O=C1NC(=O)C(N2CCc3ccccc32)=C1c1cccc(Cl)c1 [SB-408010]" unit=% quantitative_result=0
compound="CC(C)Oc1ccc2c(-c3ccnc(Nc4ccc(N5CCN(C)CC5)cc4)n3)cnn2n1 [GW696155]" unit=% quantitative_result=63
compound="CC(C)(CN)c1nc(-c2ccc(Cl)c(O)c2)c(-c2ccncc2)[nH]1.O=C(O)C(F)(F)F [SB-477794]" unit=% quantitative_result=0
compound="O=c1cc(N2CCOCC2)nc2n(Cc3cccc(C(F)(F)F)c3)ccn12 [GSK2297543]" unit=% quantitative_result=0
compound="Cc1c2ccc(N(C)c3ccnc(Nc4cccc(S(N)(=O)=O)c4)n3)cc2nn1Cc1ccccc1.Cl.Cl [GW787226]" unit=% quantitative_result=66
compound="N#Cc1ccc(-c2cc(-c3c[nH]nc3-c3ccccn3)ccn2)cc1 [GW693028]" unit=% quantitative_result=0
compound="O=c1cc(N2CCOCC2)nc2n(Cc3cccc(F)c3)ccn12 [GSK2297430]" unit=% quantitative_result=3
compound="Cc1ccc(NC(=O)c2ccnc(N3CCN(C)CC3)c2)cc1-c1ccc(C(=O)NCC2CC2)cc1 [GW775604]" unit=% quantitative_result=0
compound="O=c1cc(N2CCOCC2)nc2n(Cc3cccc(Cl)c3Cl)c(C3CC3)nn12 [GSK2358994]" unit=% quantitative_result=0
compound="Nc1nc(-c2ccc3c(N)n[nH]c3c2)cc(N2CCCC2)n1 [GSK2227430]" unit=% quantitative_result=0
compound="COc1ccc(S(=O)(=O)NC2CCN(c3cc(C)nc(Nc4cccc(C#N)c4)n3)CC2)cc1.O=C(O)C(F)(F)F [GSK1653539]" unit=% quantitative_result=0
